Target: UniProt Q99572
Sequence (Q99572 whole entry): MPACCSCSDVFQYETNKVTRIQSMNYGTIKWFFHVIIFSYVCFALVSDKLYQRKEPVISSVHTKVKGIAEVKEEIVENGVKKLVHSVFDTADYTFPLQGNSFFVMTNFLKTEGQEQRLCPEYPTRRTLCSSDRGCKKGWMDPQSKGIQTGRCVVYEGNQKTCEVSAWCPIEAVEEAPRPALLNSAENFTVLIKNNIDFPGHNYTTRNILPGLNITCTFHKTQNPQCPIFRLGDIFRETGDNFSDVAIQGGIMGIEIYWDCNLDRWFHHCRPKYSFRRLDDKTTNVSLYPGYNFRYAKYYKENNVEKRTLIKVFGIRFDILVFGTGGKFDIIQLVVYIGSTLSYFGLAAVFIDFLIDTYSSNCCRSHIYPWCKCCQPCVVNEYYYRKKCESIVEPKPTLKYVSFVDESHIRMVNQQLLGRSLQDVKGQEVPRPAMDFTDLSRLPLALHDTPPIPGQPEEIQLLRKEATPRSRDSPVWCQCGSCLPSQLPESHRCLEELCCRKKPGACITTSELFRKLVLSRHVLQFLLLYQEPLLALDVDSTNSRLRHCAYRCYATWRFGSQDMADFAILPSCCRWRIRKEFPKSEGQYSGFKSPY
Assay: Binding affinity to human P2X7 receptor expressed in HEK293 cell membrane incubated for 60 mins in presence of [125I]-4-(1-(1-(4-iodobenzoyl)piperidin-4-yl)-1H-imidazol-5-yl)phenyl isoquinoline-5-sulfonate by competitive binding assay
Assay type: cell membranes
MEASURED QUANTITY: IC50 (nM)

# QUERY SMILES, UNITS OF MEASURE, IC50
measured = [
    ("O=C(c1ccc(Br)cc1)N1CCC(n2cncc2-c2ccc(OS(=O)(=O)c3cccc4cnccc34)cc2)CC1", "nM", 7.16),
    ("O=C(c1ccc([N+](=O)[O-])cc1)N1CCC(n2cncc2-c2ccc(OS(=O)(=O)c3cccc4cnccc34)cc2)CC1", "nM", 7.91),
]
